# System: RXF 393 renal
# measurement_notes: NCI-60 one-dose screen, 48 h (100 = growth as untreated, 0 = no growth, -100 = all killed)
# setup_conditions: 10 µM unless noted
The panel holds about 83,000 compounds, 20% with a hit somewhere; the sample as a whole holds those more often.
// assign Fulfilled if growth falls strictly below 10%, else Not fulfilled (ties count as Not fulfilled)

Please review the following examples before continuing.
Q) Dear reviewer, please state whether `O=[N+]([O-])c1cc(F)c2cccnc2c1O` has growth strictly beneath 10%.
A) Not fulfilled

Q) I wonder whether Cc1cc(NC(=O)C2c3ccccc3C(=O)N(CC(C)C)C2c2cccs2)no1 (stereo not given) has growth below 10%. Can you tell?
A) Fulfilled

Q) hey, is growth for `COc1ccc(-c2cn(-c3cccc(C(=O)/C=C/c4ccc(O)c(OC)c4)c3)c(=O)[nH]2)cc1` lower than 10% or not?
A) Fulfilled

Q) Problem: For the compound CCCCNCC(O)c1cc2c(Cl)cc(Cl)cc2c2cc(C(F)(F)F)ccc12 (stereo not given) , is growth under 10%?
A) Fulfilled

Q) Given `COc1cc(Cn2c(-c3ccccc3)cc3c2-c2oncc2CC3)cc(OC)c1OC` , is recorded growth strictly lower than 10%?
A) Fulfilled

Continuing:
Q) Is growth of `COC(=O)c1cc(Cl)cc([N+](=O)[O-])c1O` strictly below 10%?
A) Not fulfilled

Q) Problem: For the compound COc1cc(NC(C)CCCN)c2ncccc2c1Sc1ccc(Cl)cc1 (stereo not given) , is growth under 10%?
A) Not fulfilled

Q) Would you kindly verify if growth of CCCCN(CCCC)CCC(O)c1cc2ccc(C(F)(F)F)cc2c2cc(C(F)(F)F)ccc12 (stereo not given) is strictly less than 10%?
A) Fulfilled

Q) Report whether reported growth is lower than 10% (strictly) for CC(=O)N1N=C(c2ccc(C)cc2)CC1c1cn(-c2ccccc2)nc1-c1cccc(Nc2ccnc3cc(Cl)ccc23)c1 (stereo not given)
A) Not fulfilled

Q) # TODO verify growth < 10% strictly for this compound: `Cc1ccc(Nc2nc(NCCO)c3ccccc3n2)cc1C`
A) Not fulfilled

* * *

# Tested on: IGROV1 ovarian
# measurement_notes: NCI-60 one-dose screen, 48 h
# setup_conditions: 10 µM unless noted
About 83,000 compounds went through this panel and 20% of them were active in at least one assay; those are over-represented in the sample as a whole. Active and inactive are the calls of the source. The calls were made as follows: active = growth percent below 10; inactive = the rest.
One label from this list, please: active, inactive

Solved cases (5 shown):
Q) Just curious, what result did `O=C1Cc2c([nH]c3ccc([N+](=O)[O-])cc23)-c2ccccc2N1` get here?
A) active

Q) Test call, this compound: `CC(C)(C)CC(C)(C)NCc1cc(C(C)(C)C)cc(CNC(C)(C)CC(C)(C)C)c1O`
A) inactive

Q) // return assay outcome for `[O-]/[N+](=C\c1ccccc1)CC1(O)CCCCC1`
A) inactive

Q) Would you mind telling me which call this test gave CCN(CC)CCCC(C)Nc1cnc(C(=O)Nc2cccc3ccc(OC)nc23)cn1 (stereo unspecified) ?
A) inactive

Q) What call does the record list for `N[C@@H](CO)C(=O)O` ?
A) inactive

Query compound follows.
Q) Which outcome did this test record for the compound CNCc1ccccc1CN(CC(=O)Nc1ccc2c(c1)CC1(C2)C(=O)Nc2ncccc21)C(=O)C(C)(C)C (stereo unspecified) ?
A) inactive

Taken from PubChem BioAssay (NCI).
